- System: Human Umbilical Vein Endothelial Cells (HUVECs)
- Assay comment: Inhibition against sandwich tube formation by vascular endothelial cells in response to stimulation by VEGF
- Type: cell-based
- Reported conditions: HUVEC in collagen gel sandwich, stimulation by VEGF (25 ng/ml VEGF and 10 ng/ml EGF), 4th day, total tube length, read-out: IC50 (concentration required for 50% inhibition of tube formation)
Experimental endpoint: IC50 (nM)
One number for each entry, in nM.

| Mol | Test result |
| --- | --- |
| COC(=O)c1cc2c(Oc3ccc(N(C)C(=O)Nc4ccc(F)cc4)cc3)ccnc2cc1OC | 5.6 |
| CS(=O)(=O)c1cccc(NC(=O)Nc2ccc(Oc3ccnc4cc(OCCCN5CCOCC5)c(C#N)cc34)cc2)c1 | 5.9 |
| O=C(Nc1ccc(Oc2ncnc3[nH]c(-c4ccccn4)cc23)cc1F)NC1CC1 | 36 |

Look up IC50 for the entries below, preserving their order.
1. C#Cc1c(Oc2ccc(NC(=O)Nc3ccc(F)cc3)cc2)ccnc1N(C(=O)C1CC1)C(=O)C1CC1
2. O=C(Nc1cc(Oc2ccc3c(ccn3C(=O)NCCF)c2)ccn1)C1CC1
3. N#CCCCOc1cc2nccc(Oc3ccc(NC(=O)Nc4ccc(F)cc4F)c(F)c3)c2cc1C#N

Result:
1. 23
2. 22
3. 35

###

For each entry below, report its IC50 value.
- Test system: UniProt:P35968
- Sequence (P35968 786-1356 limits assumed): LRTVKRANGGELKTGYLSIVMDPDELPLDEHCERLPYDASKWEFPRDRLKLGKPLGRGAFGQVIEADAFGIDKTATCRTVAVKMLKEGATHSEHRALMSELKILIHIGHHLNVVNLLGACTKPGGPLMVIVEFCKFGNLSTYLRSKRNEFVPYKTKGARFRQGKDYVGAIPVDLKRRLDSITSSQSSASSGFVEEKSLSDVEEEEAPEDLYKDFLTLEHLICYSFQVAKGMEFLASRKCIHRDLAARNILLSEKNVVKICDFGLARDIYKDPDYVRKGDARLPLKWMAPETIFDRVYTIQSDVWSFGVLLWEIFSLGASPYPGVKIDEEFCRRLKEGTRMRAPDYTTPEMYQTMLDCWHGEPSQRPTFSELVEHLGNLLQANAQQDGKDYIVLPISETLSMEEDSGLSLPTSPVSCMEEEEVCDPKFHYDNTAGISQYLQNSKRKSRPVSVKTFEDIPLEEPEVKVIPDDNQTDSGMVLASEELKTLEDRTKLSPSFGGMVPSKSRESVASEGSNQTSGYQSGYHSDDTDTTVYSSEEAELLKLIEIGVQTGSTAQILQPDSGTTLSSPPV
I'd appreciate it if you included the unit after the number.

Examples with answers:
| Mol | IC50 |
| --- | --- |
| COCCOc1cc2nccc(Oc3ccc(NC(=O)Nc4ccccc4)cc3)c2cc1C#N | 0.015 µM |
| CN1CCC(COc2cc3nccc(Oc4ccc(NC(=O)NC5CC5)c(Cl)c4)c3cc2C(N)=O)CC1 | 0.015 µM |
| O=C(Nc1ccc(F)cc1)Nc1ccc(Oc2ccnc(NC(=O)c3cccnc3)c2)cc1 | 0.013 µM |

Now turn to the next molecule.
Query: Supply measured IC50 of `CCCC(=O)Nc1cc(Oc2ccc(NC(=O)Nc3ccc(F)cc3)cc2)ccn1` in your reply.
Result: 0.0059 µM

###

- System: Human Umbilical Vein Endothelial Cells (HUVECs)
- Assay comment: Inhibition against sandwich tube formation by vascular endothelial cells in response to stimulation by VEGF
- Assay type: cell-based
- Reported conditions: HUVEC in collagen gel sandwich, stimulation by VEGF (25 ng/ml VEGF and 10 ng/ml EGF), 4th day, total tube length, read-out: IC50 (concentration required for 50% inhibition of tube formation)
For each entry below, report its IC50 value.
Give bare numbers, in nM.

Examples with answers:
| Compound | IC50 / nM |
| --- | --- |
| N#Cc1cc2c(Oc3ccc(NC(=O)Nc4ccc(F)cc4)c(F)c3)ccnc2cc1OCCCC(=O)NC1CC1 [Example 137] | 10 |
| C#CCNC(=O)c1cc2c(Oc3ccc(NC(=O)NC4CC4)c(Cl)c3)ccnc2cc1OC [Example 445] | 6.2 |

Query: Supply measured IC50 of N#Cc1cc2c(Oc3ccc(NC(=O)Nc4ccc(F)cc4)c(F)c3)ccnc2cc1OCC(O)CN1CCCC1 (stereo not drawn) [Example 492] in your reply.
Result: 7.2
